Compiled record: pKi values for 5-hydroxytryptamine receptor 7 (Homo sapiens) across several sources.
Keep in mind that pKi stands for -log10 of concentration in molar terms.

Before answering, review these 2 worked examples.
- compound: "COc1cccc(N2CCN(CCCCn3ncc(=O)n(C)c3=O)CC2)c1"
  pKi: 6.48
- compound: "CCCC(Oc1cccc(Cl)c1Cl)c1nc(N)nc(N2CCN(C)CC2)n1 (racemic)"
  pKi: 4.87

Which measured pKi belongs to COC(=O)N1CCc2ccc(/N=C/N3CCc4cc(OC)c(OC)cc4C3)cc21 , tested on 5-hydroxytryptamine receptor 7 (Homo sapiens)?
4.60

Which measured pKi belongs to c1ccc(-c2ccc(CNCCc3c[nH]c4ccccc34)o2)cc1 , tested on 5-hydroxytryptamine receptor 7 (Homo sapiens)?
5.89

Which measured pKi belongs to CCOC(=O)[C@@H]1CCCN(CCCC(C)(C)S(=O)(=O)c2ccccc2)C1 , tested on 5-hydroxytryptamine receptor 7 (Homo sapiens)?
7.62
